- measurementTarget: hACAT-2 (Homo sapiens, UniProt O75908)
- Construct: made in house; host or cells: Hi5 insect cells (baculovirus; virus produced in sf9), microsome fraction
- Sequence (O75908 whole entry): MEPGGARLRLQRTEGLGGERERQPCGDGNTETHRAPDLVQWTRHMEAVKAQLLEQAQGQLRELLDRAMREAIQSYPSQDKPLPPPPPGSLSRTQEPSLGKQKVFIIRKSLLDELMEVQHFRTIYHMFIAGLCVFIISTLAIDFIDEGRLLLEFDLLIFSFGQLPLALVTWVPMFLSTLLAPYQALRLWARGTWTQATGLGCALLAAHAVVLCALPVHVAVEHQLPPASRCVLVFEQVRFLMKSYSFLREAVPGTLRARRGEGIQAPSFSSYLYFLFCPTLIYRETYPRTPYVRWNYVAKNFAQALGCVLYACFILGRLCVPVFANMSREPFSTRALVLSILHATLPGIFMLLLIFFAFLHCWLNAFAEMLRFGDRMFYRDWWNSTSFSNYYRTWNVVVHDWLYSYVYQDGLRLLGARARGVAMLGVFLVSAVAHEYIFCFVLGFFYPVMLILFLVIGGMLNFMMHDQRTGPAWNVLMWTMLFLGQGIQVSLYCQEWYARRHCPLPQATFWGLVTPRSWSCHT
- assayInfo: hACAT inhibitory activity, microsome fraction of Hi5 cells, [1-14C] oleoyl-CoA substrate
- Type: biochemical
- conditionDescription: read-out: Inhibitory activity at 100 μM (%) hACAT2
inhibition at 100 µM reference
attributeMeasured: inhibition at 100 µM

1) C=C(C)c1cc2cc3c(cc2o1)OC[C@@]1(O)c2ccc(O)cc2O[C@@H]31 [Formula 2] = 22.9%
2) COc1ccc2c(c1)O[C@H]1c3c(cc(O)c(CC=C(C)C)c3OC)OC[C@@]21O [Formula 3] = 20.3%
3) CC(C)=CCc1c(O)ccc2c1oc(=O)c1c3ccc(O)cc3oc21 [Formula 5, phaseol] = 67.4%
4) COc1cc(O)cc2oc(=O)c3c4ccc(O)cc4oc3c12 [Formula 4, isotrifoliol] = 7.9%
